- target_entity: GDP-bound KRAS wild-type protein (Homo sapiens, UniProt P01116)
- Sequence (P01116 1-188 isoform P01116-2): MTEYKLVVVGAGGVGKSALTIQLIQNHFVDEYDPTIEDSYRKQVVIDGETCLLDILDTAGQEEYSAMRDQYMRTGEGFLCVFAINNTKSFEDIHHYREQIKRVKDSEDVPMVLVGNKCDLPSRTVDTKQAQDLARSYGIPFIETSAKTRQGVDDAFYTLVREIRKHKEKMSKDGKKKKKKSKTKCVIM
- method_summary: Binding to KRAS by surface plasmon resonance (SPR), dissociation constant KD
- measurement_setup: Single Cycle Kinetics
pKd: −log10 of the molar value.
observation_type: pKd

[[record]]
compound = "CCO[C@@H]1C[C@H]2C(=O)NC3(CCC3)C(=O)N(C)[C@@H](C3CCCC3)C(=O)N(C)[C@H](C(=O)N3CCOCC3)CC(=O)N(C)[C@@H](CC(C)C)C(=O)N[C@@H]([C@H](C)CC)C(=O)N(C)CC(=O)N(C)[C@H]3CCCCN(C3=O)[C@@H](Cc3ccc(C(F)(F)F)cc3)C(=O)N(C)CC(=O)N[C@@H](CCc3cc(F)c(C(F)(F)F)c(F)c3)C(=O)N2C1 [PP0806]"
obs_value = 9.72

[[record]]
compound = "CCO[C@@H]1C[C@H]2C(=O)NC3(CC(C)(C)C3)C(=O)N(C)[C@@H](C3CCCC3)C(=O)N(C)[C@H](C(=O)N(C)C)CC(=O)N[C@@H](CC(C)C)C(=O)N[C@@H]([C@@H](C)CC)C(=O)N(C)CC(=O)N(C)[C@H]3C/C=C\\CCN(C3=O)[C@@H](Cc3ccc(C(F)(F)F)cc3)C(=O)N(C)CC(=O)N[C@@H](CCc3cc(F)c(C(F)(F)F)c(F)c3)C(=O)N2C1 [PP3455]"
obs_value = 9.96

[[record]]
compound = "C#CC[C@H]1C(=O)N[C@@H]([C@@H](C)CC)C(=O)N(C)CC(=O)N(C)[C@H]2C/C=C\\CCN(C2=O)[C@@H](Cc2ccc(C)cc2)C(=O)N(C)CC(=O)N[C@@H](CCc2ccc(C(F)(F)F)c(OC)c2)C(=O)N2C[C@H](OCC)C[C@H]2C(=O)OC2(CCC2)C(=O)N(C)[C@@H](C2CCCC2)C(=O)N(C)[C@H](C(=O)N(C)C)CC(=O)N1C [PP3391]"
obs_value = 9.34


###

Here the recorded IC50 is given for each entry.
- System: human lung cancer strain NCI-H441
- method_summary: NCI-H441 cell proliferation inhibitory activity (CellTiter-Glo, 4 days)
- Type: cell-based
- measurement_setup: 50% proliferation inhibitory concentration, four days, read-out: NCl-H441 IC50
observation_type: IC50 (nM)

[[record]]
smiles_notation = "CCO[C@@H]1C[C@H]2C(=O)NC3(CCC3)C(=O)N(C)[C@@H](C3CCCC3)C(=O)N(C)[C@H](C(=O)N3CCOCC3)CC(=O)N(C)[C@@H](CC)C(=O)N[C@@H]([C@@H](C)CC)C(=O)N(C)CC(=O)N(C)[C@H]3C[C@@H](C)[C@@H](C)CN(C3=O)[C@@H](Cc3ccc(C(F)(F)F)cc3)C(=O)N(C)CC(=O)N[C@@H](CCc3cc(F)c(C(F)(F)F)c(F)c3)C(=O)N2C1"
observation_type = "IC50"
obs_value = 3.6

[[record]]
smiles_notation = "CC[C@H](C)[C@@H]1NC(=O)[C@H](CC)N(C)C(=O)C[C@@H](C(=O)N(C)C)N(C)C(=O)[C@H](C2CCCC2)N(C)C(=O)C2(CCC2)NC(=O)[C@@H]2CCCN2C(=O)[C@H](CCc2cc(F)c(C(F)(F)F)c(F)c2)NC(=O)CN(C)C(=O)[C@H](CC2CCC(F)(F)CC2)N2CC/C=C\\C[C@@H](C2=O)N(C)C(=O)CN(C)C1=O"
observation_type = "IC50"
obs_value = 121


###

- target_entity: GDP-bound KRAS wild-type protein (Homo sapiens)
- method_summary: Binding to KRAS by surface plasmon resonance (SPR), dissociation constant KD
- measurement_setup: 1:1 binding model
- Method: Surface plasmon resonance was used to analyze the binding affinity of compounds for KRAS, NRAS, and HRAS. […] The resulting sensorgram was subjected to curve fitting based on a 1:1 binding model on Biacore Insight Evaluation Software or T200 Evaluation Software, and thereby the dissociation constant KD of each compound with respect to KRAS, NRAS, and HRAS was determined. […]
pKd: −log10 of the molar value.
param class (str): category from pKd; see ranges bucket A: < 9; bucket B: ≥ 9 and < 10; bucket C: ≥ 10

[[record]]
compound = "CCCOC[C@H]1C(=O)N[C@@H]([C@@H](C)CC)C(=O)N(C)CC(=O)N(C)[C@H]2C/C=C\\CCN(C2=O)[C@@H](Cc2ccc(C)cc2)C(=O)N(C)CC(=O)N[C@@H](CCc2ccc(C(F)(F)F)c(Cl)c2)C(=O)N2C[C@@H](C)C[C@H]2C(=O)NC2(CC(C)(C)C2)C(=O)N(C)[C@@H](C2CCCC2)C(=O)N(C)[C@H](C(=O)N(C)CC)CC(=O)N1C [PP2467]"
category = "bucket B"

[[record]]
compound = "CC[C@H](C)[C@@H]1NC(=O)[C@H](CC2CC2)N(C)C(=O)C[C@@H](C(=O)N(C)CC)N(C)C(=O)[C@H](C2CCCC2)N(C)C(=O)C2(CC(C)(C)C2)NC(=O)[C@@H]2C[C@@H](F)CN2C(=O)[C@H](CCc2cc(F)c(C(F)(F)F)c(F)c2)NC(=O)CN(C)C(=O)[C@H](Cc2ccc(C)cc2)N2CC/C=C\\C[C@@H](C2=O)N(C)C(=O)CN(C)C1=O [PP2802]"
category = "bucket C"

[[record]]
compound = "CCOC[C@H]1C(=O)N[C@@H]([C@@H](C)CC)C(=O)N(C2CC2)CC(=O)N(C)[C@H]2C/C=C\\CCN(C2=O)[C@@H](Cc2ccc(C)cc2)C(=O)N(C)CC(=O)N[C@@H](CCc2ccc(Cl)c(Cl)c2)C(=O)N2C[C@H](OCC)C[C@H]2C(=O)NC2(CC(C)(C)C2)C(=O)N(C)[C@@H](CC2CCC2)C(=O)N(C)[C@H](C(=O)N(C)C)CC(=O)N1C [PP2762]"
category = "bucket A"

[[record]]
compound = "CCC(CC)[C@H]1C(=O)N(C)[C@H](C(=O)N(C)C)CC(=O)N(C)[C@@H](COC)C(=O)N[C@@H]([C@@H](C)CC)C(=O)N(C)CC(=O)N(C)[C@H]2C/C=C\\CCN(C2=O)[C@@H](Cc2ccc(C)cc2)C(=O)N(C)CC(=O)N[C@@H](CCc2ccc(C(F)(F)F)c(OC)c2)C(=O)N2CCCCC[C@H]2C(=O)NC2(CC(C)(C)C2)C(=O)N1C [PP2970]"
category = "bucket B"


###

- Test system: human lung cancer strain NCI-H441
- Assay type: cell-based
pIC50: −log10 of the molar value.
observation_type: pIC50

[[record]]
smiles_notation = "CCO[C@@H]1C[C@H]2C(=O)NC3(CC(C)(C)C3)C(=O)N(C)[C@@H](C3CCCC3)C(=O)N(C)[C@H](C(=O)N(C)C)CC(=O)N(C)[C@@H]([C@@H](C)OC)C(=O)N[C@@H]([C@@H](C)CC)C(=O)N3CCC[C@H]3C(=O)N(C)[C@H]3C/C=C\\CCN(C3=O)[C@@H](Cc3ccc(C)cc3)C(=O)N(C)CC(=O)N[C@@H](CCc3ccc(C(F)(F)F)c(OC)c3)C(=O)N2C1"
obs_value = 7.21

[[record]]
smiles_notation = "CC[C@H](C)[C@@H]1NC(=O)[C@H](CC)N(C)C(=O)C[C@@H](C(=O)N(C)C)N(C)C(=O)[C@H](C2CCCC2)N(C)C(=O)C2(CCCC2)N(C)C(=O)[C@@H]2CCCN2C(=O)[C@H](CCc2cc(F)c(C(F)(F)F)c(F)c2)NC(=O)CN(C)C(=O)[C@H](Cc2ccc(C(F)(F)F)cc2)N2CC/C=C\\C[C@@H](C2=O)N(C)C(=O)CN(C)C1=O"
obs_value = 8.15


###

Each entry below carries its reported pIC50.
- Test system: human lung cancer strain NCI-H441
- method_summary: NCI-H441 cell proliferation inhibitory activity (CellTiter-Glo, 4 days)
- Assay type: cell-based
- measurement_setup: NCI-H441 cells, 4 days, read-out: NCl-H441 IC50
- Description: A test compound was dispensed into a U-bottom 384-well plate as 40 nL serially diluted dimethyl sulfoxide solutions using a liquid handler Echo (LABCYTE). […] This cell suspension was dispensed in an amount of 40 µL per well into a plate containing the test compound, and cultured at 37°C in a 5% carbon dioxide gas incubator. Four days later, 20 µL of CellTiter-Glo (registered trademark) (Promega) was added to each well and […] was measured. […]
pIC50: −log10 of the molar value.
observation_type: pIC50

[[record]]
smiles_notation = "CCCO[C@@H]1C[C@H]2C(=O)NC3(CC(C)(C)C3)C(=O)N(C)[C@@H](C3CCCC3)C(=O)N(C)[C@H](C(=O)N(C)CC)CC(=O)N(C)[C@@H](COCC)C(=O)N[C@@H]([C@@H](C)CC)C(=O)N3C[C@@H](F)C[C@H]3C(=O)N(C)[C@H]3C/C=C\\CCN(C3=O)[C@@H](Cc3ccc(C)cc3)C(=O)N(C)CC(=O)N[C@@H](CCc3cc(F)c(C(F)(F)F)c(F)c3)C(=O)N2C1"
obs_value = 7.72

[[record]]
smiles_notation = "CCOC[C@H]1C(=O)N[C@@H]([C@@H](C)CC)C(=O)N(C)CC(=O)N(C)[C@H]2C/C=C\\CCN(C2=O)[C@@H](Cc2ccc(C)cc2)C(=O)N(C)CC(=O)N[C@@H](CCc2cc(F)c(C(F)(F)F)c(F)c2)C(=O)N2C[C@@H](C)C[C@H]2C(=O)NC2(CC(C)(C)C2)C(=O)N(C)[C@@H](C2CCCC2)C(=O)N(C)[C@H](C(=O)N(C)C)CC(=O)N1C"
obs_value = 8.18

